Consider the following compounds; for each one, report its EC50.
Target: Short transient receptor potential channel 4 (Mus musculus, UniProt Q9QUQ5)
Sequence (Q9QUQ5 whole entry): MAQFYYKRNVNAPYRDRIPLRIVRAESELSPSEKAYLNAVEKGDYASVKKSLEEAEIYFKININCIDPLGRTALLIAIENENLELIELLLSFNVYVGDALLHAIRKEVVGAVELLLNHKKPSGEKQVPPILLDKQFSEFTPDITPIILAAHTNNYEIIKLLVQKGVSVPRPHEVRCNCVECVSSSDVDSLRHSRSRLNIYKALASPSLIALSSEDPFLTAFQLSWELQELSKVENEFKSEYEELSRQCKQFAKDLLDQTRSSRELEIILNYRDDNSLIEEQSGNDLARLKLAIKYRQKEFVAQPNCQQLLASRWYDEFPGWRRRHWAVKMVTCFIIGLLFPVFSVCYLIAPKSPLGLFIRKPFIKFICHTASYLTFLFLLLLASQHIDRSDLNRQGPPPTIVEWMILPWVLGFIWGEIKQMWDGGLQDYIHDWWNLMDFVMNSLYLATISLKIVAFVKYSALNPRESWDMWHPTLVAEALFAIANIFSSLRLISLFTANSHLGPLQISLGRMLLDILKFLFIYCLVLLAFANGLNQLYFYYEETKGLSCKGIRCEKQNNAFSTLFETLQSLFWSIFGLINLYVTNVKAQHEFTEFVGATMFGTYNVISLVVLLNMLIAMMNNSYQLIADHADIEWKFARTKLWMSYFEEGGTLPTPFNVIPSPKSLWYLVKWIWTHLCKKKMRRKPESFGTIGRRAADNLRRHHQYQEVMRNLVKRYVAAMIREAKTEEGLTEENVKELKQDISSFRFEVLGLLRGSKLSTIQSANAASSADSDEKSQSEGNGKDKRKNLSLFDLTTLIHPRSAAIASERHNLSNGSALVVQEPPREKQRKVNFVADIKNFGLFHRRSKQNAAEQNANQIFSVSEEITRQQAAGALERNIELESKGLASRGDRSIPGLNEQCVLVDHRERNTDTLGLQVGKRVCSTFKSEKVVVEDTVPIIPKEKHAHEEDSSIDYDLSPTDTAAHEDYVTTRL
Assay: mouse TRPC4 channel activators, dose response, cell-based, HEK293 TRPC4/mu-opioid, Fluo-4 calcium (AID 434937)
Type: functional
Activity calls are given as the source filed them.

Example entries and their recorded answers appear below.
COc1cc(OC)cc(C(=O)NC2CCCN(Cc3ccc(Cl)cc3)C2)c1 (stereo not given) = 5.96 µM (active)
Cn1c(N2CCNCC2)nc2ccccc21 = 0.149 µM (active)
Cc1cccc(NC(S)=NCC(c2cccnc2)N(C)C)c1 (stereo not given) = 0.0267 µM (active)
Cc1ccc(Cn2c(SCCN3CCCCC3)nc3c2c(=O)n(C)c(=O)n3C)cc1 = 11.9 µM (active)

Lab entry: Short transient receptor potential channel 4 (Mus musculus, UniProt Q9QUQ5) assay, compound O=C(CNS(=O)(=O)c1ccc2ccccc2c1)NCCc1ccccn1 , EC50 = 9.44 µM (active)

###

Field: AC50. Provide a value for each of the compounds that follow.
Target: FAD-linked sulfhydryl oxidase ALR (Homo sapiens)
Sequence (P55789 whole entry): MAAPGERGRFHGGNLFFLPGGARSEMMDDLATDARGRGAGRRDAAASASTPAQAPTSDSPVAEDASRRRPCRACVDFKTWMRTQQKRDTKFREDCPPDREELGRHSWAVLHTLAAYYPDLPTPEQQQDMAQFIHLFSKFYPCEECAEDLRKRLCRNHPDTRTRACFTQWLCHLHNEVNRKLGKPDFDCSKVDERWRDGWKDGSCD
Assay: inhibitors of human ALR sulfhydryl oxidase, dose response, biochemical, H2O2 detection, luminescence, cherry-pick (AID 493248)
Active and inactive are the calls of the source.

COc1ccc(/C=N/Nc2ccccn2)c(OC)c1OC = 484 nM (active)

# batch: return AC50 for each of the 3 compounds below
1. O=C(c1cc2ccccc2o1)N1CCN=C1SCc1cccnc1
2. Cc1ccc(Sc2ccc(S(=O)(=O)Nc3ccc(C(=O)O)cc3)cc2)cc1C
3. Cc1ccc(Nc2c(-c3ccccc3O)nc3cnccn23)cc1

1: 95 nM (active); 2: 20700 nM (active); 3: 705 nM (active)

###

So I've got a bunch of molecules here, and I need their AC50 values.
Assay: inhibitors of clade B AD8 Env fusion, dose response, cell-based, cherry-pick (AID 652062);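 further: luciferase signal from cell-cell fusion driven by HIV-1 clade B AD8 Env; potency is for inhibitors of fusion seen as a drop in luminescence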
Type: functional
The source made the active and inactive calls.

Cc1cc(C(=O)NC2CCCc3c2cnn3-c2ccc(C(C)(C)C)cc2)nn1C (stereo unspecified) = 4.61 µM (active)
COc1ccc(C(O)c2nc3ccccc3n2C)cc1OC (stereo unspecified) = 3.4 µM (active)
CC1CCCCN1S(=O)(=O)c1ccc(C(=O)Nc2nnc(-c3cccs3)o2)cc1 (stereo unspecified) = 16.6 µM (active)
O=C(Nc1nc(-c2ccc3c(c2)OCO3)cs1)c1ccncc1 = 4.67 µM (active)
CC(=O)Nc1sc2c(c1C(c1ccc(F)cc1)N1CCOCC1)CCCC2 (stereo unspecified) = 32.8 µM (active)

Sure, the documented AC50 for COc1ccccc1NC(=O)N[C@H]1C=C[C@@H](CC(=O)N[C@H](C)c2ccccc2)O[C@H]1CO is 11 µM (active)

###

Please provide measured AC50 for the entries that follow.
Test: ZM109 Env clade C HIV-1 fusion inhibitors, dose response, HeLa effector, CEM target cells, luciferase, cherry-pick (AID 652058)
Assay type: functional, cell-based
The source made the active and inactive calls.

Answered cases to consult:
CC(=O)Nc1sc2c(c1C(c1ccc(F)cc1)N1CCOCC1)CCCC2 (centres undefined) = 11.6 µM (active)
Cc1cc(C(=O)NC2CCCc3c2cnn3-c2ccc(C(C)(C)C)cc2)nn1C (centres undefined) = 1.86 µM (active)

I would be grateful if you could provide AC50 for each of the following entries.
1. O=C1CC(C(=O)N(CC2CCCO2)C(C(=O)NC2CCCCC2)c2ccncc2)CS1 (centres undefined)
2. COc1ccccc1NC(=O)N[C@H]1C=C[C@@H](CC(=O)N[C@H](C)c2ccccc2)O[C@H]1CO

["6.85 µM (active)", "3.38 µM (active)"]
